- ASSAY_NOTES: Afatinib CSF concentration (lumbar puncture), HPLC-MS/MS
- Format: in vivo
- COND: human, oral, 8 patients, approximately 3 hours after dosing in the first cycle, below lower limit of quantification
OBSERVABLE: concentration at 3 h

Asked: Any idea what its concentration at 3 h is? The compound is CN(C)C/C=C/C(=O)Nc1cc2c(Nc3ccc(F)c(Cl)c3)ncnc2cc1O[C@H]1CCOC1
Given back: < 1.01 ng/mL
